Provide the reported normalized growth of each item.
experiment-description: chemical genetic growth profiling, strain panel (AID 1159580);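 note: tested at 20 µM; growth read once vehicle control cultures reached saturation at 30 °C; 1 = growth at the plate median or of vehicle wells; lower values mean less growth of the strain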
study-conditions: S. cerevisiae deletion strains, growth OD, locus YFR003C, strain YPI1, active compounds read low
The whole screen tested about 5,500 compounds, of which about 2,000 (36%) were called active. Inconclusive results (about 18%) are left out. This is one part of the list.
Answers are plain numbers.

Examples with their reported normalized growth follow.
1) Cc1nnsc1C(=O)NNc1ccc(F)cc1F    0.968
2) COc1ccc(NNC(=O)c2sc3ccccc3c2Cl)cc1    0.93
3) Cc1cc(Cl)ccc1NNC(=O)c1ccno1    0.967

Okay, here is my list. What is normalized growth for each of these?
1. N#Cc1ccc(S(=O)(=O)Nc2ccccc2Oc2ccc(Cl)cc2Cl)cc1
2. COc1cc2c(cc1OC)C(C)N(C(=O)c1sc3ccccc3c1Cl)CC2 (stereo unspecified)
3. Cc1ccc(-c2csc(-c3cccnc3)n2)c(C)c1

Reply:
[0.974, 0.978, 0.959]

###

Provide the reported normalized growth of each item.
experiment-description: chemical genetic growth profiling, strain panel (AID 1159580);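 note: tested at 20 µM; growth read once vehicle control cultures reached saturation at 30 °C; 1 = growth at the plate median or of vehicle wells; lower values mean less growth of the strain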
study-conditions: S. cerevisiae deletion strains, growth OD, locus YAL021C, strain ccr4, active compounds read low
Screen size: about 5,500 compounds; about 2,000 (36%) were called active. Not shown: some 18% with an inconclusive outcome. The list shows a part of the results.
One number for each entry.

Examples with their reported normalized growth follow.
1. COc1ccc2c(c1OC)C(=O)O[C@@H]2[C@H]1c2cc3c(cc2CCN1C)OCO3    1.01
2. COc1ccc2c(c1)O[C@@H]1COc3cc(OC)c(OC)cc3[C@@H]1C2=O    0.977
3. CCN(CC)CCCC(C)Nc1c2ccc(Cl)cc2nc2ccc(OC)cc12 (stereo unspecified)    0.906
4. COc1cc(O)c(C(=O)/C=C/c2ccccc2)c(OC)c1    0.998
5. COc1cc(O)c(C(=O)/C=C/c2ccc(OC)c(O)c2)c(OC)c1    0.994
6. COc1ccc2c(c1OC)C(=O)O[C@H]2[C@H]1c2cc3c(cc2CCN1C)OCO3    0.987
7. COc1cc2c(cc1OC)[C@@H]1C(=O)c3ccc4c(c3O[C@@H]1CO2)C=CC(C)(C)O4    1.05
8. CC(=O)OCC(=O)[C@H]1CCC2C3CCC4=CC(=O)CC[C@]4(C)C3CC[C@@]21C (stereo partly specified)    0.94
9. CO[C@H]1[C@H](O)[C@H](O[C@H]2CC[C@]3(C)C4CC[C@]5(C)C(C6=CC(=O)OC6)CC[C@]5(O)C4CC[C@@H]3C2)O[C@@H](C)[C@@H]1O (stereo partly specified)    1
10. COc1cc2c(cc1OC)[C@@H]1C(=O)c3ccc(OC)c(CC=C(C)C)c3O[C@@H]1CO2    1.06

Okay, here is my list. What is normalized growth for each of these?
1. CC1(C)OC(=O)NC1=O
2. CN(C)CC/C=C1\c2ccccc2Sc2ccc(Cl)cc21
3. CC(=O)NC1SCCC1=O (stereo unspecified)
4. Oc1cc(Cl)ccc1Oc1ccc(Cl)cc1Cl
5. COc1ccc2c(C)cc(=O)oc2c1
6. ClC1=C(Cl)C2(Cl)C3C4C=CC(C4)C3C1(Cl)C2(Cl)Cl (stereo unspecified)
7. C=C1C2CC[C@H]3[C@]4(C)C[C@H](OC5OC(CO)C(OS(=O)(=O)O)C(OS(=O)(=O)O)C5OC(=O)CC(C)C)C[C@@H](C(=O)O)[C@H]4CC[C@]3(C2)[C@H]1O (stereo partly specified)

Reply:
[0.996, 0.696, 1.01, 0.0638, 0.979, 0.987, 0.974]

Okay, here is my list. What is normalized growth for each of these?
1. CCN(CCO)CCCC(C)Nc1ccnc2cc(Cl)ccc12 (stereo unspecified)
2. COc1cc(O)c(C(=O)/C=C/c2ccc(O)c(OC)c2)c(OC)c1
3. COc1cc2c(cc1OC)Cc1cc(OC)c(OC)cc1Cc1cc(OC)c(OC)cc1C2
4. Cc1[nH]c(C)c(Cl)c(=O)c1Cl

Reply:
1: 1.03; 2: 0.948; 3: 1.03; 4: 1.01
